Test system: SNB-19 CNS
method.summary: NCI tumour cell line growth inhibition, 48 h
# TGI listing for each entry below

{"columns": ["compound", "TGI"],
 "data": [
  ["COc1cc(C(=O)/C=C/c2ccc(OCCSCCCCCCCCCCSCCOc3ccc(/C=C/C(=O)c4cc(OC)c(OC)c(OC)c4)cc3)cc2)cc(OC)c1OC", "> 100 µM"],
  ["COc1cc(/C=C2/SC(c3ccccc3)N(Cc3ccccc3)C2=O)cc(OC)c1OC (stereo not given)", "> 100 µM"],
  ["O=P1(Oc2ccccc2)N=P(c2ccccc2)(c2ccccc2)C=C(c2ccc(Cl)cc2)N1 (stereo not given)", "29.7 µM"],
  ["Cc1c(O)c2ccccc2oc1=O", "> 100 µM"]
]}

Ask | Which TGI is reported for this compound? COC1C(CO)OC(n2c3ccccc3c3c4c(c5c6ccccc6[nH]c5c32)C(=O)NC4=O)C(O)C1O (stereo not given)
Reply | 6.64 µM

Ask | One more compound: COC(=O)C(Cc1nc2ccccc2[nH]c1=O)/C(=N\NC(C)(C)C)C(=O)Nc1c(C)cc(Br)cc1C (stereo not given)
Reply | > 100 µM

Ask | Now consider CCOC(=O)c1ccccc1OC(=O)NNc1ccccc1 and answer again.
Reply | > 100 µM

Ask | Same lookup for N#Cc1c(NC(=O)NCc2ccccc2)sc2c1CCCC2 , please.
Reply | > 100 µM

Ask | Field entry: CC(C)(C)N1CCC1CN (stereo not given)
Reply | > 100 µM

Ask | Same read-out for Cc1cc([N+](=O)[O-])ccc1Sc1c2ccccc2nc2cc(Cl)ccc12 ?
Reply | > 100 µM

====

System: MCF7 breast
method.summary: NCI tumour cell line growth inhibition, 48 h
Measured TGI accompanies every entry in the list below.

{"columns": ["compound", "target.entity", "TGI"],
 "data": [
  ["CC1(C)N=C(N)N=C(N)N1c1ccc(CCCCc2ccccc2)c(Cl)c1", "MCF7 breast", "2.12 µM"],
  ["O=C(O)CSC(CC1(c2ccc(Cl)cc2)NC(=O)CS1)c1ccc(Cl)cc1 (stereo not drawn)", "MCF7 breast", "> 100 µM"],
  ["O=C(O)CSCc1cc2c(O)c(c1)Cc1cc(CSCC(=O)O)cc(c1O)Cc1cc(CSCC(=O)O)cc(c1O)Cc1cc(CSCC(=O)O)cc(c1O)C2", "MCF7 breast", "> 100 µM"],
  ["CCOP(=O)(OCC)C(C)(C)N(C)/C(F)=N/C(F)(F)F", "MCF7 breast", "> 100 µM"],
  ["O=C1CC[C@H](N2C(=O)c3cccc4c(Cc5ccc(CN6CCOCC6)cc5)ccc2c34)C(=O)N1", "MCF7 breast", "> 100 µM"],
  ["CCOC1=NC(C(F)(F)F)(C(F)(F)F)N=C(N2CCOCC2)O1", "MCF7 breast", "> 100 µM"],
  ["CC[C@H](NC(=O)[C@H]1CCCCN1C)C(=O)N(C)[C@H](C[C@@H](OC(C)=O)c1nc(C(=O)N[C@@H](Cc2ccccc2)C[C@H](C)C(=O)O)cs1)C(C)C", "MCF7 breast", "> 14.3 µM"],
  ["COc1ccc(N=Cc2c(O)ccc3c2oc2cc(Cl)c(O)c(Cl)c23)cc1", "MCF7 breast", "44.1 µM"],
  ["CCCCCC1CC=CC(=O)O1 (stereo not drawn)", "MCF7 breast", "40.3 µM"],
  ["CCOC(=O)c1ccccc1OC(=O)NNc1ccccc1", "MCF7 breast", "> 100 µM"]
]}

Note: attention shifts to another entry.
Ask | Entry C=C(C)C1CC/C(C)=C/CCC2(C)OC2CC/C(CO)=C\C1O (stereo not drawn) : reported TGI = ?
Reply | > 100 µM
